Biological target: MC4-R (Homo sapiens, UniProt P32245)
Sequence (P32245 whole entry): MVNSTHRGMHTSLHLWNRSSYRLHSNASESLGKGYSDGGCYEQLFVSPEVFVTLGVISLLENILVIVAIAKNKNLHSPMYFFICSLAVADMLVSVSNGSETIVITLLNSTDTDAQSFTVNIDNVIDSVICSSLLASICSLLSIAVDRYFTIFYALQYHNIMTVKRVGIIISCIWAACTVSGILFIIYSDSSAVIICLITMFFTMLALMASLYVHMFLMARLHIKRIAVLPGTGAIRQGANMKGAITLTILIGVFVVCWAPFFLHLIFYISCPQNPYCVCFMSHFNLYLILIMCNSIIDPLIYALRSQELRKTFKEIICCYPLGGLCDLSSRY
Assay: Competitive inhibition binding assay, 125I-NDP-α-MSH, MC4-R
Parameters: expressed in transfected cells
Settings: 1 μM compound; inhibition of 125I-NDP-α-MSH binding; mean of triplicates; results less than 0% reported as 0%
property_measured: Inhibition at 1 μM MC4-R (%)
Output spec: scalar in %, unitless text.

Solved cases below.
compound: CCCC(CCC)C(=O)N[C@@H](Cc1cnc[nH]1)C(=O)N[C@H](Cc1ccccc1)C(=O)N1C[C@H](OCc2ccccc2)C[C@H]1C(=O)NCCCN [Example 143]
study_target: MC4-R (Homo sapiens, UniProt P32245)
property_measured: Inhibition at 1 μM MC4-R
output_unit: %
reported_value: 0
--
compound: NCC[C@H]1C(=O)N(CCc2ccc3ccccc3c2)CCN1C(=O)[C@H](N)Cc1ccc(Cl)cc1Cl [Example 54]
study_target: MC4-R (Homo sapiens, UniProt P32245)
property_measured: Inhibition at 1 μM MC4-R
output_unit: %
reported_value: 55
--
compound: NCCCC[C@H]1C(=O)N(CCc2ccc3ccccc3c2)CCN1C(=O)[C@H](N)Cc1ccc2ccccc2c1 [Example 59]
study_target: MC4-R (Homo sapiens, UniProt P32245)
property_measured: Inhibition at 1 μM MC4-R
output_unit: %
reported_value: 72

Sure, the documented Inhibition at 1 μM MC4-R for NCCCNC(=O)[C@@H]1C[C@@H](OCc2ccccc2)CN1C(=O)[C@@H](Cc1ccccc1)NC(=O)C1(N)CCCCC1 [Example 162] is 8

###

Listed here are molecules together with their documented Inhibition at 1 μM MC1-R.
Biological target: MC1-R (B-16 mouse melanoma cells) (Mus musculus, UniProt Q01727)
Construct: B-16 mouse melanoma cells (containing MC1-R); endogenous in cells; host or cells: B-16 mouse melanoma cells
Sequence (Q01727 whole entry): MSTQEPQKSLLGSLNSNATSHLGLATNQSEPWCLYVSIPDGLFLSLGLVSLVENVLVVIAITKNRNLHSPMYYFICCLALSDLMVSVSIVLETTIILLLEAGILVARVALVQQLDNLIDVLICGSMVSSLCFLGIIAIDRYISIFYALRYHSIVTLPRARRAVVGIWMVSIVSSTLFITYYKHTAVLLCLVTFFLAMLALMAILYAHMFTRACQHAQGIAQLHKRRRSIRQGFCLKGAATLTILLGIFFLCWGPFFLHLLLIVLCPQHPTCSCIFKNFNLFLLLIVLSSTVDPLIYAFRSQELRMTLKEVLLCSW
Test: Competitive inhibition binding assay, 125I-NDP-α-MSH, MC1-R
Details: 1 μM compound; inhibition of 125I-NDP-α-MSH binding; mean of triplicates; results less than 0% reported as 0%
Kindly provide the numeric value in % only, without the unit symbol.

molecule: NCCCC[C@H]1C(=O)N2C(CC[C@@H]2COc2ccc3ccccc3c2)N1C(=O)[C@@H](Cc1ccccc1Cl)NC(=O)C1(N)CCc2ccccc2C1 (stereo partly shown)
Inhibition at 1 μM MC1-R (%): 24
--
molecule: N=C(N)NCC[C@H]1C(=O)N(CCc2ccc3ccccc3c2)CCN1C(=O)[C@H](N)Cc1ccc(Cl)cc1Cl
Inhibition at 1 μM MC1-R (%): 21
--
molecule: NCCCCC1C(=O)N2C(COc3ccccc3)CCC2N1C(=O)C(N)Cc1ccccc1Cl (stereo not shown)
Inhibition at 1 μM MC1-R (%): 0
--
molecule: N[C@H](Cc1ccc(Cl)cc1Cl)C(=O)N1CCN(CCc2ccc3ccccc3c2)C(=O)[C@@H]1CCCCNC(=O)CC1CCCCC1
Inhibition at 1 μM MC1-R (%): 0

Inhibition at 1 μM MC1-R reported for this molecule NCCCC[C@H]1C(=O)N2C(CC[C@@H]2COc2ccc3ccccc3c2)N1C(=O)[C@@H](Cc1ccccc1Cl)NC(=O)C1(N)CCc2ccccc21 (stereo partly shown) : 39

Form: molecule = N[C@H](Cc1ccc(Cl)cc1Cl)C(=O)N1CCN(CCc2ccc3ccccc3c2)C(=O)[C@@H]1CCCNc1nncs1 ; Inhibition at 1 μM MC1-R = 28

Form: molecule = NC(=O)NCC[C@H]1C(=O)N(CCc2ccc3ccccc3c2)CCN1C(=O)[C@H](N)Cc1ccc(Cl)cc1Cl ; Inhibition at 1 μM MC1-R = 11
